Taken from PubChem BioAssay (NCATS).

System: Nanoluciferase (engineered Oplophorus gracilirostris luciferase)
Assay: Primary Nanoluciferase (NLuc) qHTS assay for identification of artifact compounds. (AID 1845222);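 note: NLuc secreted into diluted conditioned medium of S16 cells; 0% = DMSO and -100% = no enzyme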
Details: NLuc-conditioned medium, Nano-Glo luminescence, 5 min; series mostly up to 54.1 µM
Calls of active or inactive are those of the source. Calls come from the whole dose curve; as a rule, active = well fitted inhibition curve with a large enough effect; inconclusive = small, poorly fitted or top-dose-only effect; inactive = flat fitted curve, though single readings scatter.

{"columns": ["molecular-string", "activity, negative = inhibition"],
 "data": [
  ["COc1cc2ncnc(Nc3cccc(O)c3)c2cc1OC", "inactive"],
  ["[N-]=[N+]=N[C@]1(CO)O[C@@H](n2ccc(=O)[nH]c2=O)[C@@H](O)[C@@H]1O", "inactive"],
  ["C[C@@H]1CN(Cc2ncccn2)C[C@H]1c1nc2c(cnn2C2CCOCC2)c(=O)[nH]1", "inactive"],
  ["CN(CCc1ccc(Nc2ncc(-c3cccnc3)s2)cc1)Cc1ccccc1", "inactive"],
  ["COc1ccc(F)cc1-c1cc(NC(=O)[C@@H]2CCCNC2)ncc1Cl", "inactive"],
  ["CC(C)C[C@H](CC(=O)NO)C(=O)N[C@H](C(=O)N[C@@H](C)C(=O)NCCN)C(C)(C)C", "2.44% [at 11.6 µM] (inactive)"],
  ["Cc1cc(C)c2c(N)c(C(=O)NCc3ccc(Cl)cc3)sc2n1", "inactive"],
  ["CO[C@H]1C[C@@H]2CC[C@@H](C)[C@@](O)(O2)C(=O)C(=O)N2CCCC[C@H]2C(=O)O[C@H]([C@H](C)C[C@@H]2CC[C@H](n3cnnn3)[C@H](OC)C2)CC(=O)[C@H](C)/C=C(\\C)[C@@H](O)[C@@H](OC)C(=O)[C@H](C)C[C@H](C)/C=C/C=C/C=C/1C", "inactive"]
]}

* * *

Tested on: CRL-7250
Assay: Cytotoxic Profiling of Annotated Libraries Using Quantitative High-Throughput Screening (AID 1296008); note: % is set by controls: 0 for no effect and ±100 for the full control effect; nearly all actives have a fitted effect of over 60% in size
Details: Five cell lines viability, CellTiter-Glo ATP luminescence, 48-72 h; active compounds read low
Results filed as inconclusive are left out.

{"columns": ["molecule", "reading-unit", "max response"],
 "data": [
  ["COc1ccc(C(=O)n2c(C)c(Cc3cccc(O[C@@H](C)C(=O)O)c3)c3cc(OC(F)(F)F)ccc32)cc1", "%", -19.1],
  ["CCC[C@@H]1O[C@@H]2C[C@H]3[C@@H]4CCC5=CC(=O)C=C[C@]5(C)[C@H]4[C@@H](O)C[C@]3(C)[C@]2(C(=O)CO)O1", "%", 0.403],
  ["CC[C@H](NC(=O)[C@H](CS(=O)(=O)CC1CC1)N[C@@H](c1ccc(F)cc1)C(F)(F)F)C(=O)C(=O)NC1CC1", "%", 3.55],
  ["CC(=O)OC1C[C@]2(C)C(O)CC(C)=C[C@H](OC(=O)c3ccc(O)cc3)C2[C@]1(O)C(C)C (some centres not stated)", "%", 1.7],
  ["CC(=O)O[C@H]1[C@@H](O)[C@H](O[C@H]2[C@@H]3C=CO[C@@H](O[C@H]4O[C@@H](CO)[C@H](O)[C@@H](O)[C@@H]4O)[C@@H]3[C@@]3(CO)O[C@@H]23)O[C@@H](C)[C@@H]1OC(=O)/C=C/c1ccccc1", "%", -1.67],
  ["C=C1CC2C(C)(CCC(=O)O)C(C(C)(C)O)CCC2(C)C2C(=O)OC(C)(C(=O)OC)C(=O)C12C (configuration not stated)", "%", -2.01],
  ["CO[C@H]1O[C@@H]2O[C@]3(C)CC[C@H]4[C@H](C)CC[C@@H]([C@H]1C)[C@@]24OO3", "%", -2.96]
]}

* * *

As shown below, each of these compounds has a reported activity change, negative = cytotoxicity value.
Tested on: CASKI
Experiment: Primary qHTS to identify gynecologic anti-cancer compounds using libraries of approved drugs and bioactive compounds (AID 1345084); note: nearly all actives have a fitted effect of over 55% in size; for activity change, negative = cytotoxicity: % is set by controls: 0 for no effect and ±100 for the full control effect
Conditions: Gynecologic cancer cell panel viability, ATPlite luminescence, 48 h; series mostly up to 57.5 µM
Results filed as inconclusive are left out. Active and inactive are the calls of the source. Calls come from the whole dose curve; as a rule, active = well fitted cell-killing curve with a large enough effect; inconclusive = small, poorly fitted or top-dose-only effect, or effect the other way; inactive = flat fitted curve, though single readings scatter.
readout-name: activity change, negative = cytotoxicity

{"columns": ["compound", "reading"],
 "data": [
  ["C[C@@H]1O[C@@H](O[C@H]2[C@H](OC(=O)[C@]34CCC(C)(C)C[C@H]3C3=CCC5[C@@]6(C)C[C@H](O)[C@H](O[C@@H]7O[C@H](CO)[C@@H](O)[C@H](O)[C@H]7O)[C@@](C)(CO)C6[C@H](O)C[C@@]5(C)[C@]3(C)C[C@H]4O)OC[C@H](O)[C@@H]2O)[C@H](O)[C@H](O)[C@H]1O[C@@H]1OC[C@@H](O)[C@H](O[C@H]2OC[C@](O)(CO)[C@H]2O)[C@H]1O (stereo partly drawn)", "-4.03% [at 6.55 µM] (inactive)"],
  ["CC1(C)CC[C@]2(C(=O)O[C@@H]3O[C@H](CO[C@@H]4O[C@H](CO)[C@@H](O)[C@H](O)[C@H]4O[C@@H]4O[C@H](CO)[C@H](O)[C@H](O)[C@H]4O)[C@@H](O)[C@H](O[C@@H]4O[C@H](CO)[C@@H](O)[C@H](O)[C@H]4O)[C@H]3O)CC[C@]3(C)C(=CCC4[C@@]5(C)CC[C@H](O[C@@H]6OC[C@@H](O)[C@H](O)[C@H]6O)[C@@](C)(C(=O)O)C5CC[C@]43C)[C@@H]2C1 (stereo partly drawn)", "-6.95% [at 6.55 µM] (inactive)"],
  ["C=C1CC[C@@H]2[C@@](C)(CO[C@@H]3O[C@H](CO)C(O)[C@H](O)C3O)[C@H](O)CC[C@@]2(C)[C@@H]1CC/C(C)=C/CO (stereo partly drawn)", "-5.44% [at 11.6 µM] (inactive)"]
]}

* * *

System: HeLa
Assay: Primary qHTS to identify gynecologic anti-cancer compounds using libraries of approved drugs and bioactive compounds (AID 1345084); note: nearly all actives have a fitted effect of over 55% in size
Conditions: Gynecologic cancer cell panel viability, ATPlite luminescence, 48 h; series mostly up to 57.5 µM
Records with an inconclusive call do not appear. Calls of active or inactive are those of the source. Calls come from the whole dose curve; as a rule, active = well fitted cell-killing curve with a large enough effect; inconclusive = small, poorly fitted or top-dose-only effect, or effect the other way; inactive = flat fitted curve, though single readings scatter.
Outcome codes: active, inactive

{"columns": ["compound", "group"],
 "data": [
  ["Cc1cc(C)c2c(N)c(C(=O)NCc3ccc(Cl)cc3)sc2n1", "inactive"],
  ["C=CC(C)(O)CC[C@H]1C(=C)CCC2[C@](C)(C(=O)O)CCC[C@@]21C (stereo partly specified)", "inactive"],
  ["COc1cc2ncnc(N3CCC(Oc4cnc5ccccc5n4)C3)c2cc1OC (stereo unspecified)", "active"],
  ["O=C1OCc2cc3cccc(O[C@@H]4O[C@H](CO)[C@@H](O)[C@H](O)[C@H]4O)c3c(O)c21", "inactive"],
  ["COc1ccc([C@@H]2OC[C@H]3[C@@H]2CO[C@@H]3c2ccc(OC3OC(CO)C(O)C(O)C3O)c(OC)c2)cc1OC (stereo partly specified)", "inactive"],
  ["O=C1NC(=O)C(c2cn3c4c(cccc24)CCC3)C1c1c[nH]c2ccccc12 (stereo unspecified)", "active"],
  ["CC1=C2C3OC(=O)C(C)C3(O)CCC2(C)CCC1O (stereo unspecified)", "inactive"],
  ["C=C(C)C(=O)OC1C(OC(C)=O)/C(C=O)=C\\CC/C(CO)=C/C2OC(=O)C(=C)C21 (stereo unspecified)", "inactive"],
  ["OC1CCC(Nc2ncc3nc(Nc4c(F)cc(F)cc4F)n([C@H]4CCOC4)c3n2)CC1 (stereo partly specified)", "inactive"],
  ["CCOc1ccc2nc(SCCN3CCOCC3)[nH]c2c1", "inactive"],
  ["O=[N+]([O-])c1cccc2[nH]c(CNc3nc(N4CCOCC4)nc4c3ncn4-c3ccsc3)nc12", "active"],
  ["O=S(=O)(c1ccccc1)c1cnc2c(N3CCNCC3)cccc2c1", "inactive"],
  ["COc1cc(N2CCOCC2)ccc1Nc1ncc(Cl)c(Nc2ccccc2NS(C)(=O)=O)n1", "active"],
  ["CN(C)C/C=C/C(=O)Nc1cccc(C(=O)Nc2cccc(Nc3ncc(Cl)c(-c4c[nH]c5ccccc45)n3)c2)c1", "active"],
  ["CC(C)CCC1(O)C(=O)C(C)(C)C(O[C@@H]2O[C@H](CO)[C@@H](O)[C@H](O)[C@H]2O)C(C)(C)C1O (stereo partly specified)", "inactive"],
  ["CC(Cc1cc2c(c(C(N)=O)c1)N(CCCO)CC2)NCCOc1ccccc1OCC(F)(F)F (stereo unspecified)", "inactive"],
  ["COC(=O)CCSCc1ccc(-c2onc(C)c2NC(=O)OC(C)c2ccccc2Cl)cc1 (stereo unspecified)", "inactive"],
  ["COc1cc2c(cc1OC)N1C(=O)C[C@]34C=CCN5CC[C@@H]2[C@@H](CC3)[C@]514", "inactive"],
  ["OC/C=C/c1ccc(O[C@@H]2O[C@H](CO)[C@@H](O)[C@H](O)[C@H]2O)cc1", "inactive"],
  ["CC(=O)SCC(=O)c1ccc(NS(=O)(=O)c2ccc(OCCCN(C)C)cc2)nc1", "active"],
  ["COc1cc(-c2ncn(/C=C\\C(=O)OC(C)C)n2)cc(C(F)(F)F)c1", "active"],
  ["C=C(C(=O)O)[C@H]1C[C@]2(C)[C@@H](O)CC[C@]23O[C@H]1C[C@@H]3C", "inactive"],
  ["COC(=O)C[C@H]1[C@]2(C)C3=C(C)[C@H](c4ccoc4)C[C@H]3O[C@@H]2[C@H](OC(C)=O)C2[C@](C)(C(=O)OC)C=CC(=O)[C@@]21C (stereo partly specified)", "inactive"],
  ["CO[C@H]1O[C@@H]2O[C@]3(C)CC[C@H]4[C@H](C)CC[C@@H]([C@H]1C)[C@@]24OO3", "inactive"],
  ["Cn1cc(-c2ccc3nnc(Sc4ccc5nn(C)cc5c4)n3n2)cn1", "inactive"],
  ["COc1cc(N)c(Cl)cc1C(=O)NC[C@@H]1CCN2CCC[C@@H]12", "inactive"],
  ["COc1ccc(C(=O)C2CCN(CC(=O)N(Cc3nc4c(c(=O)[nH]3)COCC4)CC3CC3)CC2)cc1", "inactive"],
  ["C=C1C(=O)OC2CC(C)=C(C(C)CCCO)C(O)C12 (stereo unspecified)", "inactive"],
  ["O=C(O)CC(=O)OC[C@H]1O[C@@H](Oc2ccc3c(c2)OC[C@H]2c4cc5c(cc4O[C@@H]32)OCO5)[C@H](O)[C@@H](O)[C@@H]1O", "inactive"],
  ["COC(=O)C[C@H]1C(C)(C)[C@H](OC(C)=O)C2CC3=C4CC(=O)O[C@@H](c5ccoc5)[C@]4(C)CCC3[C@@]1(C)C2=O (stereo partly specified)", "inactive"],
  ["C[C@@H]1CN(Cc2ncccn2)C[C@H]1c1nc2c(cnn2C2CCOCC2)c(=O)[nH]1", "inactive"],
  ["NC(=O)[C@H](O[C@@H]1O[C@H](CO)[C@@H](O)[C@H](O)[C@H]1O)c1ccccc1", "inactive"],
  ["CC(=O)c1cc2c(cc1O)OC(C)(C)C=C2", "inactive"],
  ["CO[C@H]1/C=C\\O[C@@]2(C)Oc3c(C)c(O)c4c(O)c(c5c(nc6cc(C)ccn65)c4c3C2=O)NC(=O)/C(C)=C\\C=C/[C@H](C)[C@H](O)[C@@H](C)[C@@H](O)[C@@H](C)[C@H](OC(C)=O)[C@@H]1C", "inactive"],
  ["Cc1c(C(=O)Nc2ccc(N3CC(C)OC(C)C3)nc2)cccc1-c1ccc(OC(F)(F)F)cc1 (stereo unspecified)", "inactive"],
  ["COc1c2ccoc2cc2oc(CO[C@@H]3O[C@H](CO)[C@@H](O)[C@H](O)[C@H]3O)cc(=O)c12", "inactive"]
]}
